B1: Hairpin Ribozyme (parent)
chain: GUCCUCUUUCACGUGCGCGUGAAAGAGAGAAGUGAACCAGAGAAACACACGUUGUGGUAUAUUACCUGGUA

Variants of: B1
Assay explanation: self-cleavage, relative activity (ratio to wild type); higher = more cleavage; co-transcriptional
Give self-cleavage for every item shown.
Please give only the number in your answer, with no unit.

Exam item: Dear colleague, I am looking for the recorded self-cleavage of the following variant: U8G G57U
Marked response: 0.19

Exam item: # iterate: C16G G19C
Marked response: 0.618

Exam item: # iterate: C46G U52C
Marked response: 0.144

Exam item: # iterate: U58C U63C
Marked response: 0.178

Exam item: # iterate: A36G C48A
Marked response: 0.196

Exam item: # iterate: A28G C50U
Marked response: 0.439

Exam item: # iterate: G32A G40C
Marked response: 0.156

Exam item: # iterate: C12G G13A
Marked response: 0.851

Exam item: # iterate: A24U U58A
Marked response: 0.724

Exam item: # iterate: A30C G32A
Marked response: 0.145

Exam item: # iterate: G13A C65G
Marked response: 0.238

Exam item: # iterate: U5A G40U
Marked response: 0.101

Exam item: # iterate: C48G U52G
Marked response: 0.225

Exam item: # iterate: C18U G40U
Marked response: 0.244

Exam item: # iterate: A22U A64U
Marked response: 0.14

Exam item: # iterate: G57C A64U
Marked response: 0.095

Exam item: # iterate: G40A A44C
Marked response: 0.161

Exam item: # iterate: G1C U58C
Marked response: 0.16

Exam item: # iterate: C10A A22U
Marked response: 0.632

Exam item: # iterate: C65G U67G
Marked response: 0.0652

Exam item: # iterate: C16G G56U
Marked response: 0.187

Exam item: # iterate: C16A A61G
Marked response: 0.203

The values you see were collected from the RNAGym collection of RNA variant scans (doi:10.7554/elife.80360).
